tested_on: NADPH oxidase 2 (Homo sapiens)
experiment: compounds shifting NOX2 Amplex Red fluorescence – cell-based, HEK293-NOX2, PMA-stimulated, NOX inhibitor project, primary screen (AID 1159); further: test concentration not given here
condition_context: 45 min, higher = more signal, called active from +8 up or from −8 down
Hi, to clarify the labels: true covers z-score from 0.03 upward, false covers anything below 0.03.

q: State whether the measured z-score reaches 0.03, counting equality as reaching it, for COCC1C2CC[C@H]3C(OCc4ccc(F)cc4C(F)(F)F)OC[C@]4(C)[C@H]3C2=C(CN4C(=O)OC(C)(C)C)[C@H](C)C1COC (stereo not given in full)
a: false

q: What do we get for C[C@]1(C(=O)NCC(F)(F)F)c2ccccc2C(=O)N(Cc2cc(F)cc(C(F)(F)F)c2)[C@H]1c1ccc(CO)cc1 ?
a: false

q: Another compound to check: C=CC[C@@]1(C(=O)OC)N=C(c2ccc(OCCCO)cc2)O[C@@H]1c1ccccc1CN=[N+]=[N-]
a: false

q: Follow-up item: O=C1c2ccccc2[C@](Cc2ccccc2I)(C(=O)O)[C@H](c2ccc(CO)cc2)N1Cc1ccccc1C(F)(F)F
a: true

q: Please answer likewise for Cc1ccc(S[C@]2(C(=O)NCCCN(C)C)CC(=O)N(C(C)C)[C@@H]2c2ccc(CO)cc2I)cc1
a: true

q: Would you mind doing O=C1OCCC/C=C\[C@H]2OC34C=CCN(CCN5CCOCC5)C(=O)[C@H]3N(CCO)C(=O)[C@@H]4C12 (stereo not given in full) as well?
a: true

q: Let us now turn to COc1ccc([Si](C)(C)[C@@H]2[C@@H](CC(=O)N3Cc4ccccc4C[C@H]3CO)O[C@]3(C(=O)N(Cc4cccc(N5C(=O)COc6ccccc65)c4)c4ccccc43)[C@H]2C)cc1
a: false

q: Now give it for CN(C)CCCN1C(=O)[C@@]2(c3ccc([N+](=O)[O-])cc3)CC(=O)N(C3CCCCC3)[C@@H]2c2ccc(CO)cc21 too.
a: false

q: And C=CCC(OC(C)=O)[C@@H]1[C@@H](N(Cc2cc3ccccc3o2)C(=O)c2cccc3ccccc23)c2cc(OCCCO)ccc2N1C(=O)Cc1ccc2ccccc2c1 (stereo not given in full) ?
a: true

q: CCOC(=O)C1=C[C@@H](C(C)(C)C)N(S(=O)(=O)c2ccc(C)cc2)[C@H]1c1ccc(Cl)c(Cl)c1 , same question.
a: false
